Target: rh beta tryptase (Homo sapiens)
Construct: purchased Promega
Assay: Tryptase inhibition test (cleavage of N-p-tosyl-Gly-Pro-Lys-para-nitroaniline, p-nitroaniline measured at 405 nm)
Format: biochemical
Conditions: inhibition of rh beta tryptase at 10 μM test substance; substrate N-p-tosyl-Gly-Pro-Lys-para-nitroaniline 0.6 mM, pH 7.4, 37° C., 5 minutes
endpoint-name: inhibition at 10 µM (%)

>>> numeric_result("N=C(N)c1ccc(CCc2nc3cc(C(=O)N(CCCc4ccccc4)Cc4ccc(CN)cc4)ccc3n2CC2CCCO2)cc1 (stereo not drawn)")
51
>>> numeric_result("COC(=O)c1ccc(CN(Cc2ccc(CN)cc2)C(=O)c2ccc3c(c2)nc(CCc2ccc(C(=N)N)cc2)n3CCCNC(=O)Cc2ccccc2)cc1")
64
>>> numeric_result("Cc1ccccc1N1CCN(CCCn2c(CCc3ccc(C(=N)N)cc3)nc3cc(C(=O)N(CCN)Cc4cccc(C(F)(F)F)c4)ccc32)CC1")
52
>>> numeric_result("N=C(N)c1ccc(CCc2nc3cc(C(=O)N(Cc4ccccc4)Cc4ccc(CN)cc4)ccc3n2CCCN2CCOCC2)cc1")
56
>>> numeric_result("CCCCN(CCCC)CCCn1c(CCc2ccc(C(=N)N)cc2)nc2cc(C(=O)N(Cc3ccc(CN)cc3)Cc3ccc4ccccc4c3)ccc21")
54
>>> numeric_result("CCCCN(Cc1ccc(CN)cc1)C(=O)c1ccc2c(c1)nc(CCc1ccc(C(=N)N)cc1)n2CC1CC1")
67

====

Molecular target: rh beta tryptase (Homo sapiens)
Construct: purchased Promega
Test: Tryptase inhibition test (cleavage of N-p-tosyl-Gly-Pro-Lys-para-nitroaniline, p-nitroaniline measured at 405 nm)
Format: biochemical
Conditions: inhibition of rh beta tryptase at 10 μM test substance; substrate N-p-tosyl-Gly-Pro-Lys-para-nitroaniline 0.6 mM, pH 7.4, 37° C., 5 minutes
Reported inhibition at 10 µM values are given for each entry in this list.
endpoint-name: inhibition at 10 µM (%)

>>> numeric_result("COC(=O)c1ccc(CN(Cc2ccc(CN)cc2)C(=O)c2ccc3c(c2)nc(CCc2ccc(C(=N)N)cc2)n3CCc2ccc(Cl)cc2)cc1 [Example 444]")
53
>>> numeric_result("CCOCCCn1c(CCc2ccc(C(=N)N)cc2)nc2cc(C(=O)N(CCN)Cc3cccc(C(F)(F)F)c3)ccc21 [Example 390]")
60
>>> numeric_result("N=C(N)c1ccc(CCc2nc3cc(C(=O)N(CCN)Cc4ccccc4)ccc3n2Cc2cccs2)cc1 [Example 307]")
57
>>> numeric_result("N=C(N)c1ccc(CCc2nc3cc(C(=O)N(CCN)CCCc4ccccc4)ccc3n2CCCN2CCOCC2)cc1 [Example 369]")
57
>>> numeric_result("CCCCN(Cc1ccc(CN)cc1)C(=O)c1ccc2c(c1)nc(CCc1ccc(C(=N)N)cc1)n2Cc1ccc2c(c1)OCO2 [Example 100]")
67
>>> numeric_result("CCCCN(CCCC)CCCn1c(CCc2ccc(C(=N)N)cc2)nc2cc(C(=O)N(Cc3ccc(CN)cc3)Cc3cccc(OC)c3)ccc21 [Example 71]")
58
>>> numeric_result("CCCCN(CCN)C(=O)c1ccc2c(c1)nc(CCc1ccc(C(=N)N)cc1)n2Cc1cccs1 [Example 291]")
75
>>> numeric_result("N=C(N)c1ccc(CCc2nc3cc(C(=O)N(CCCc4ccccc4)Cc4ccc(CN)cc4)ccc3n2CCCN2CCOCC2)cc1 [Example 177]")
68
>>> numeric_result("N=C(N)c1ccc(CCc2nc3cc(C(=O)N(Cc4ccc(CN)cc4)CC4CCCCC4)ccc3n2CC2CCCO2)cc1 (stereo not shown) [Example 162]")
60
>>> numeric_result("CCCCN(CCCC)CCCn1c(CCc2ccc(C(=N)N)cc2)nc2cc(C(=O)N(CCN)CCCc3ccccc3)ccc21 [Example 359]")
59
>>> numeric_result("N=C(N)c1ccc(CCc2nc3cc(C(=O)N(CCN)CCCc4ccccc4)ccc3n2Cc2cccs2)cc1 [Example 371]")
55
>>> numeric_result("CCCCN(Cc1ccc(CN)cc1)C(=O)c1ccc2c(c1)nc(CCc1ccc(C(=N)N)cc1)n2Cc1cccs1 [Example 99]")
58
>>> numeric_result("N=C(N)c1ccc(CCc2nc3cc(C(=O)N(CCCc4ccccc4)Cc4ccc(CN)cc4)ccc3n2CCCNC(=O)Cc2ccccc2)cc1 [Example 168]")
66

====

This section lists pIC50 readings for rh beta tryptase (Homo sapiens).
pIC50: −log10 of the molar value.
endpoint-name: pIC50

>>> numeric_result("CCOCCCn1c(CCc2ccc(C(=N)N)cc2)nc2cc(C(=O)N(CCN)Cc3cccc(OC)c3)ccc21")
6.55
>>> numeric_result("CCOCCCn1c(CCc2ccc(C(=N)N)cc2)nc2cc(C(=O)N(CCN)Cc3ccccc3F)ccc21")
6.41
>>> numeric_result("Cn1c(CCc2ccc(C(=N)N)cc2)nc2cc(C(=O)N3CCN(Cc4ccccc4)CC3)ccc21")
6.46
>>> numeric_result("CCOc1ccccc1N1CCN(C(=O)c2ccc3c(c2)nc(CCc2ccc(C(=N)N)cc2)n3C)CC1")
6.52

====

Molecular target: rh beta tryptase (Homo sapiens, UniProt P20231)
Construct: purchased Promega
Sequence (P20231 31-275): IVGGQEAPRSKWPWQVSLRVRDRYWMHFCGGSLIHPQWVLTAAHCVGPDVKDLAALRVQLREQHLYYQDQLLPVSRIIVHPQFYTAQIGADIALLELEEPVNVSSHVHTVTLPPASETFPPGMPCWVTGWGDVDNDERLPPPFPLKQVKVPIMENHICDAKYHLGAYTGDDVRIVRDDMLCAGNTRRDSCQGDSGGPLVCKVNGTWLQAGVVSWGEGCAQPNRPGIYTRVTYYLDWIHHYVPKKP
Experiment: Tryptase inhibition test (cleavage of N-p-tosyl-Gly-Pro-Lys-para-nitroaniline, p-nitroaniline measured at 405 nm)
Format: biochemical
Conditions: inhibition of rh beta tryptase at 10 μM test substance; substrate N-p-tosyl-Gly-Pro-Lys-para-nitroaniline 0.6 mM, pH 7.4, 37° C., 5 minutes
endpoint-name: inhibition at 10 µM (%)

>>> numeric_result("CCCCN(CCCC)CCCn1c(CCc2ccc(C(=N)N)cc2)nc2cc(C(=O)N(CCN)Cc3ccccc3)ccc21 [Example 295]")
55
>>> numeric_result("N=C(N)c1ccc(CCc2nc3cc(C(=O)N(Cc4ccc(CN)cc4)Cc4ccc5ccccc5c4)ccc3n2CCc2ccccc2)cc1 [Example 235]")
52
>>> numeric_result("COc1cccc(CN(Cc2ccc(CN)cc2)C(=O)c2ccc3c(c2)nc(CCc2ccc(C(=N)N)cc2)n3CCCN2CCOCC2)c1 [Example 81]")
69
>>> numeric_result("Cc1ccc(Cn2c(CCc3ccc(C(=N)N)cc3)nc3cc(C(=O)N(Cc4ccc(CN)cc4)Cc4ccc5ccccc5c4)ccc32)cc1 [Example 237]")
52
>>> numeric_result("N=C(N)c1ccc(CCc2nc3cc(C(=O)N(Cc4ccc(CN)cc4)Cc4cccc(C(F)(F)F)c4)ccc3n2CCCNC(=O)Cc2ccccc2)cc1 [Example 200]")
69
>>> numeric_result("N=C(N)c1ccc(CCc2nc3cc(C(=O)N(Cc4ccc(CN)cc4)CC4CCCCC4)ccc3n2CCCN2CCOCC2)cc1 [Example 161]")
56
>>> numeric_result("N=C(N)c1ccc(CCc2nc3cc(C(=O)N(Cc4ccc(CN)cc4)CC4CCCCC4)ccc3n2CC2CC2)cc1 [Example 154]")
63
>>> numeric_result("N=C(N)c1ccc(CCc2nc3cc(C(=O)N(Cc4ccc(CN)cc4)Cc4cccc(C(F)(F)F)c4)ccc3n2CCCN2CCOCC2)cc1 [Example 209]")
61
>>> numeric_result("N=C(N)c1ccc(CCc2nc3cc(C(=O)N(Cc4ccccc4)Cc4ccc(CN)cc4)ccc3n2CCc2ccccc2)cc1 [Example 107]")
65
>>> numeric_result("COc1cccc(CN(Cc2ccc(CN)cc2)C(=O)c2ccc3c(c2)nc(CCc2ccc(C(=N)N)cc2)n3CCCNC(=O)Cc2ccccc2)c1 [Example 72]")
69
>>> numeric_result("N=C(N)c1ccc(CCc2nc3cc(C(=O)N(Cc4ccccc4)Cc4ccc(CN)cc4)ccc3n2CC2CC2)cc1 [Example 106]")
58
>>> numeric_result("N=C(N)c1ccc(CCc2nc3cc(C(=O)N(Cc4ccc(CN)cc4)Cc4cccc(C(F)(F)F)c4)ccc3n2CCc2ccccc2)cc1 [Example 203]")
53
>>> numeric_result("COC(=O)c1ccc(CN(Cc2ccc(CN)cc2)C(=O)c2ccc3c(c2)nc(CCc2ccc(C(=N)N)cc2)n3CCc2ccccc2)cc1 [Example 443]")
52
>>> numeric_result("Cc1ccc(Cn2c(CCc3ccc(C(=N)N)cc3)nc3cc(C(=O)N(CCCc4ccccc4)Cc4ccc(CN)cc4)ccc32)cc1 [Example 173]")
51
>>> numeric_result("N=C(N)c1ccc(CCc2nc3cc(C(=O)N(Cc4ccc(CN)cc4)CC4CCCCC4)ccc3n2CCc2ccccc2)cc1 [Example 155]")
57
>>> numeric_result("CCCCN(CCN)C(=O)c1ccc2c(c1)nc(CCc1ccc(C(=N)N)cc1)n2CCc1ccccc1 [Example 283]")
59
>>> numeric_result("N=C(N)c1ccc(CCc2nc3cc(C(=O)N(CCN)CCCc4ccccc4)ccc3n2CC2CCCO2)cc1 (stereo not drawn) [Example 370]")
53
>>> numeric_result("CCCCN(CCCC)CCCn1c(CCc2ccc(C(=N)N)cc2)nc2cc(C(=O)N(CCN)CCCC)ccc21 [Example 279]")
60
>>> numeric_result("CCOCCCn1c(CCc2ccc(C(=N)N)cc2)nc2cc(C(=O)N(Cc3ccc(CN)cc3)Cc3cccc(C(F)(F)F)c3)ccc21 [Example 198]")
63
>>> numeric_result("N=C(N)c1ccc(CCc2nc3cc(C(=O)N(Cc4ccc(CN)cc4)Cc4ccc5ccccc5c4)ccc3n2CCCNC(=O)Cc2ccccc2)cc1 [Example 232]")
58
>>> numeric_result("COC(=O)c1ccc(CN(Cc2ccc(CN)cc2)C(=O)c2ccc3c(c2)nc(CCc2ccc(C(=N)N)cc2)n3CC2CCCO2)cc1 (stereo not drawn) [Example 450]")
72
>>> numeric_result("N=C(N)c1ccc(CCc2nc3cc(C(=O)N(Cc4ccc(CN)cc4)Cc4ccccc4F)ccc3n2CCc2ccccc2)cc1 [Example 219]")
51
>>> numeric_result("CCCCN(CCN)C(=O)c1ccc2c(c1)nc(CCc1ccc(C(=N)N)cc1)n2CCCNC(=O)Cc1ccccc1 [Example 280]")
59
>>> numeric_result("CCCCN(Cc1ccc(CN)cc1)C(=O)c1ccc2c(c1)nc(CCc1ccc(C(=N)N)cc1)n2CCCN1CCOCC1 [Example 97]")
56
